# Study target: UniProtKB P17538
# Sequence (P17538 34-164 limits assumed, other chains not shown): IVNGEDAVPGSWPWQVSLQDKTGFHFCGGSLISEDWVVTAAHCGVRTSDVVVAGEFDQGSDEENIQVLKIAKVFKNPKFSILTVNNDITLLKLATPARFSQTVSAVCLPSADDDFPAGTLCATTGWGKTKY
# Sequence (P17538 167-263 limits assumed, other chains not shown): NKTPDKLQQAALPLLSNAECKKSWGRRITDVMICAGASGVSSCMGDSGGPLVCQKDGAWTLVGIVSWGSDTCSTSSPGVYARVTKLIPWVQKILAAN
# Protocol text: Binding constant alpha-chymotrypsin was determined by competitive inhibition assay with BTEE as substrate
Experimental readout: Ki (µM)

compound="O=C1CCC(c2ccccc2)/C(=C\\I)O1 (stereo unspecified)" experimental_result=55

----------
# Protocol text: Hydrolysis rate constant of the compound
# Type: ADME
Kh listing for selected compounds.
Experimental readout: Kh (min⁻¹)

compound="O=C1CC(c2ccccc2)/C(=C\\I)O1 (stereo not given)" experimental_result=0.0021
compound=O=C1C=C(c2ccccc2)/C(=C\I)O1 experimental_result=0.0015
compound="C=C1CC(c2ccccc2)CC(=O)O1 (stereo not given)" experimental_result=0.0015
compound="O=C1CC(c2ccccc2)C/C(=C\\I)O1 (stereo not given)" experimental_result=0.0068
compound="O=C1CCC(c2ccccc2)/C(=C\\I)O1 (stereo not given)" experimental_result=0.004
